Measured values drawn from patent US20240360238A1 for this set.

- measurement target: T1, purified human CD117 ectodomain (R&D Systems #332-SR) (human, UniProt P10721 26-524)
- T1 construct: extracellular domain; Bought protein; also called c-kit; purified recombinant human CD117 ectodomain
- T1 sequence (P10721 26-524): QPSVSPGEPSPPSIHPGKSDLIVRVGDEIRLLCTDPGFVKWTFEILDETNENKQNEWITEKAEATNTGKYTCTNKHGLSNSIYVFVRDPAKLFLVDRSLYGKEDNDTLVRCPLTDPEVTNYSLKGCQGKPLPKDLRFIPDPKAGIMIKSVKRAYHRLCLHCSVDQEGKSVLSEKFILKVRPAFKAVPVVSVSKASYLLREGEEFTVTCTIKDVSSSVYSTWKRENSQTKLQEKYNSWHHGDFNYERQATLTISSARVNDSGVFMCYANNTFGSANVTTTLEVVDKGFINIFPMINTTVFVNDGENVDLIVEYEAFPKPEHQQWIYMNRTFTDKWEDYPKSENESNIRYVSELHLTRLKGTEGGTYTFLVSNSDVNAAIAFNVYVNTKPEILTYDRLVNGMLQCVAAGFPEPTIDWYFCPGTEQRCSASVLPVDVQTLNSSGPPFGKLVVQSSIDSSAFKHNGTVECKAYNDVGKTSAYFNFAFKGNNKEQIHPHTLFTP
- test details: BLI, IgG on anti-human Fc sensor, 33 and 11 nM ectodomain;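 also: Kd, kon and koff are apparent values, with Kd reported as the apparent monovalent affinity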
Mark Satisfied for Kd under 0.9 nM, Not satisfied if at or over.

{"binder": "HC-77/LC-77 (Ab77) (antibody, IgG1, V domains shown, Purified human antibody tested as an IgG1; hIgG1/hKappa; also called Antibody 77) VH: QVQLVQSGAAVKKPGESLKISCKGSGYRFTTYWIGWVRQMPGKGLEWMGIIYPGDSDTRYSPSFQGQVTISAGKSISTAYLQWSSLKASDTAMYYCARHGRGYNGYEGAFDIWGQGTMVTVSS VL: DIQLTQSPSSLSASVGDRVTITCRASQGVISALAWYQQKPGKAPKLLIYDASILESGVPSRFSGSGSGTDFTLTISSLQPEDFATYYCQQFNSYPLTFGGGTKVEIK", "class name": "Satisfied"}
{"binder": "HC-245/LC-245 (Ab245) (antibody, V domains shown, IgG on anti-human Fc sensors; hIgG1/hKappa) VH: EVQLVQSGAEVKKPGESLKISCKGSGYRFTTSWIGWVRQMPGKGLEWMGIIYPGDSDTRYSPSFQGQVTISADKSISTAYLQWSSLKASDTAMYYCARHGLGYNGYEGAFDIWGQGTLVTVSS VL: DIQMTQSPSSLSASVGDRVTITCRASQGIGSALAWYQQKPGKAPKLLIYDASTLESGVPSRFSGSGSGTDFTLTISSLQPEDFATYYCQQFNGYPLTFGQGTRLEIK", "class name": "Satisfied"}
{"binder": "HC-85/LC-85 (Ab85) (antibody, V domains shown, Purified IgG, hIgG1/hKappa; also called Antibody 85) VH: EVQLVQSGAEVKKPGESLKISCKGSGYSFTNYWIGWVRQMPGKGLEWMAIINPRDSDTRYRPSFQGQVTISADKSISTAYLQWSSLKASDTAMYYCARHGRGYEGYEGAFDIWGQGTLVTVSS VL: DIQMTQSPSSLSASVGDRVTITCRSSQGIRSDLGWYQQKPGKAPKLLIYDASNLETGVPSRFSGSGSGTDFTLTISSLQPEDFATYYCQQANGFPLTFGGGTKVEIK", "class name": "Satisfied"}

Turning now to a further record.
Problem: # TODO verify Kd < 0.9 nM strictly for this binder: HC-79/LC-79 (Ab79) (antibody, IgG1, V domains shown, Purified human antibody tested as an IgG1; hIgG1/hKappa; also called Antibody 79) VH: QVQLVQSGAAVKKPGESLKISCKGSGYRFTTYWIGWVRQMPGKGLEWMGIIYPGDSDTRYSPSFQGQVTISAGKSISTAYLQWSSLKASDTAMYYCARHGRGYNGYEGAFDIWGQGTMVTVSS VL: DIQLTQSPSSLSASVGDRVTITCRASQGVGSALAWYQQKPGKAPKLLIYDASILESGVPSRFSGSGSGTDFTLTISSLQPEDFATYYCQQFNSYPLTFGGGTKVEIK
Solution: Not satisfied
